pIC50: −log10 of the molar value.
Field: pIC50. System: Neprilysin (Homo sapiens, UniProt P08473). Provenance: assorted publications.
Sequence (P08473 whole entry): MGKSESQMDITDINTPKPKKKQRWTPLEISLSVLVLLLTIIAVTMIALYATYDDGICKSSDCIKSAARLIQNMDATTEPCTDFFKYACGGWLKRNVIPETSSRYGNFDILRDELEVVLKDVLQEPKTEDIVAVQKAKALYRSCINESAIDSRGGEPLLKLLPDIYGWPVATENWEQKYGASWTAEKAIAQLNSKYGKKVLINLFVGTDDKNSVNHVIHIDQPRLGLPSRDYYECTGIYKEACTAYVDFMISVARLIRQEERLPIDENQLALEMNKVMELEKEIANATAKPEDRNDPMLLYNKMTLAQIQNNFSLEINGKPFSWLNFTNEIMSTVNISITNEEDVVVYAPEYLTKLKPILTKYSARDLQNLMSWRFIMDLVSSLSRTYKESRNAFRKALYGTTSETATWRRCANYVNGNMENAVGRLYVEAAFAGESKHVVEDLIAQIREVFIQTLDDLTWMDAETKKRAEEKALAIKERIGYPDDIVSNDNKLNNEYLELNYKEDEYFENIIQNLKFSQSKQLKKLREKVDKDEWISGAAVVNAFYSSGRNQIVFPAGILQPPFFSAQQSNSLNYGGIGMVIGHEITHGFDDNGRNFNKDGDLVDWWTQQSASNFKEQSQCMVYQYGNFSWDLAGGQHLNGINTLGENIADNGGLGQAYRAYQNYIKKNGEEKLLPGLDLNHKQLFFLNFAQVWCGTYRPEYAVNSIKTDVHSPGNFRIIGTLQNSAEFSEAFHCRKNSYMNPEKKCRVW
quantity: pIC50

>  <molecule>
O=C(O)CCN1C(=O)[C@@H](NC(=O)[C@@H](S)Cc2ccccc2)COc2ccccc21

>  <pIC50>
8.92

$$$$

[P] O=C(O)CCN1C(=O)[C@@H](NC(=O)[C@@H](CS)Cc2ccccc2)CCc2ccccc21
[Q] O=C1N[C@H](C(=O)O)CCCCCCc2cccc(c2)C[C@@H]1CS
[R] CCCC[C@H](CN(O)C=O)C(=O)N[C@H](C(=O)N(C)C)C(C)(C)C
[S] CC[C@H](C)C(N[C@@H](C)C(=O)O)C(=O)N[C@@H](Cc1ccc(-c2ccccc2)cc1)C(=O)O (stereo not given in full)
In this exercise, place the 4 molecules in ascending sequence of their recorded pIC50. Put the labels in the requested order and list them out.
R, S, Q, P

---

Field: IC50. System: Neprilysin (Homo sapiens, UniProt P08473). Provenance: assorted publications.
quantity: IC50 (µM)

Sample answers from the record:
>  <givenSmiles>
O=C(O)[C@H](Cc1ccc(-c2ccccc2)cc1)NC(=O)[C@H](Cc1cccs1)NCP(=O)(O)O

>  <IC50 [µM]>
0.073

$$$$
>  <givenSmiles>
C[C@H]1Oc2ccccc2N(CCC(=O)O)C(=O)[C@H]1NC(=O)[C@@H](S)Cc1ccccc1

>  <IC50 [µM]>
0.083

$$$$

[a] O=C1N[C@H](C(=O)O)Cc2ccccc2CCCCCC[C@@H]1CS
[b] CC(C)[C@H](NC(=O)[C@H](CC#Cc1ccccc1F)NCP(=O)(O)O)C(=O)O
[c] O=C(O)CN1C(=O)[C@H](NC(=O)[C@@H](S)Cc2ccccc2)CCc2ccccc21
[d] O=C(NCCc1ccc(Br)cc1)[C@H](CC#Cc1ccccc1F)NCP(=O)(O)O
In this exercise, place the 4 compounds in ascending sequence of their recorded IC50. Put the labels in the requested order and list them out.
a, c, b, d

---

Field: IC50. System: Neprilysin (Homo sapiens, UniProt P08473). Provenance: assorted publications.
quantity: IC50 (µM)

Sample answers from the record:
>  <compound>
CCCC[C@H](NCP(=O)(O)O)C(=O)N[C@@H](Cc1ccc(-c2ccccc2)cc1)C(=O)O

>  <endpointUnit>
µM

>  <measuredValue>
0.037

$$$$
>  <compound>
CC(C)CN(CCP(=O)(O)O)C(=O)N[C@@H](Cc1ccc2ccccc2c1)C(=O)O

>  <endpointUnit>
µM

>  <measuredValue>
0.006

$$$$
>  <compound>
O=C(N[C@H]1CCc2cccc3c2N(C1=O)[C@H](C(=O)O)C3)C(CS)Cc1ccc(-c2ccccc2)cc1 (stereo in doubt; 4n (S))

>  <endpointUnit>
µM

>  <measuredValue>
0.012

$$$$
>  <compound>
O=P(O)(O)CN[C@@H](CC#Cc1ccccc1F)c1nnn[nH]1

>  <endpointUnit>
µM

>  <measuredValue>
0.014

$$$$
>  <compound>
O=C1N[C@H](C(=O)O)CCCCCCc2cccc(c2)C[C@H]1CS

>  <endpointUnit>
µM

>  <measuredValue>
0.445

$$$$
>  <compound>
COCCOCC(CC1(C(=O)N[C@H]2CC[C@@H](C(=O)O)CC2)CCCC1)C(=O)Oc1ccc2c(c1)CCC2 (some centres undefined)

>  <endpointUnit>
µM

>  <measuredValue>
0.065

$$$$
>  <compound>
O=C(NCCc1ccccc1)[C@H](CC#Cc1ccccc1F)NCP(=O)(O)O

>  <endpointUnit>
µM

>  <measuredValue>
19

$$$$
>  <compound>
O=C(O)[C@H](CC#Cc1ccccc1F)NCP(=O)(O)O

>  <endpointUnit>
µM

>  <measuredValue>
11

$$$$

[I] O=C(O)CN1C(=O)C(NC(=O)[C@@H](S)Cc2ccccc2)CCCc2ccccc21 (some centres undefined)
[II] O=C(NCc1ccccc1)[C@H](CC#Cc1ccccc1F)NCP(=O)(O)O
[III] O=C(O)CN1C(=O)[C@@H](NC(=O)[C@H](CC#Cc2ccc(F)cc2F)NCP(=O)(O)O)CCc2ccccc21
[IV] O=C1N[C@H](C(=O)O)CCCCCc2cccc(c2)C[C@@H]1CS
[V] CC(C)[C@H](NCP(=O)(O)O)C(=O)N[C@@H](CCc1ccccc1)C(=O)O
Rank the 5 compounds: largest IC50 first, smallest last. Put the labels in the requested order and list them out.
II, I, III, V, IV
(II: 55 µM, I: 1.12 µM, III: 0.73 µM, V: 0.026 µM, IV: 0.008 µM)

[I] CC(C)C[C@H](CC(=O)O)C(=O)N[C@@H](CO)C(=O)O
[II] O=C(O)[C@H](CC1CCCCC1)NC(=O)[C@H](CC#Cc1ccc(F)cc1F)NCP(=O)(O)O
Of I versus II , which is the one with smaller reported IC50? Please indicate the selected item by its label.
II

---

pIC50: −log10 of the molar value.
Field: pIC50. System: Neprilysin (Homo sapiens). Provenance: assorted publications.
quantity: pIC50

Sample answers from the record:
>  <givenSmiles>
O=C(O)[C@H](CC#Cc1ccc(F)cc1F)NCP(=O)(O)O

>  <pIC50>
4.59

$$$$
>  <givenSmiles>
O=C(N[C@H]1CCC(=O)N2CC[C@@H](C(=O)O)N2C1=O)[C@@H](S)Cc1ccccc1

>  <pIC50>
6.85

$$$$
>  <givenSmiles>
C[C@@H]1Oc2ccccc2N(CC(=O)O)C(=O)[C@H]1NC(=O)[C@@H](S)Cc1ccccc1

>  <pIC50>
8.28

$$$$

[I] O=C(O)CN1C(=O)[C@@H](NC(=O)[C@@H](S)CC2CCCCC2)CCc2ccccc21
[II] O=C(O)CN1C(=O)[C@@H](NC(=O)[C@@H](S)Cc2ccccc2)CCc2ccccc21
Recorded pIC50 values differ for I and II ; which one is higher? Please indicate the selected item by its label.
II
(II: 8.22, I: 5.37)

[1] O=C(O)CCN1C(=O)[C@@H](NC(=O)[C@@H](S)Cc2ccccc2)CCc2ccccc21
[2] CCC(CC)CN(C[C@H](O)C(=O)O)C(=O)N[C@@H](Cc1ccc2ccccc2c1)C(=O)O
Of 1 versus 2 , which is the one with smaller reported pIC50? Please indicate the selected item by its label.
2
(2: 7.44, 1: 8.62)

---

Field: pIC50. System: Neprilysin (Homo sapiens). Provenance: assorted publications.
pIC50: −log10 of the molar value.
quantity: pIC50

Sample answers from the record:
>  <givenSmiles>
CSCC[C@H](NC(=O)[C@H](CC#Cc1ccccc1F)NCP(=O)(O)O)C(=O)O

>  <targetOrTestSystem>
Neprilysin (Homo sapiens)

>  <pIC50>
5.39

$$$$
>  <givenSmiles>
CC(C)C[C@H]1CC(=O)N([C@@H](CO)C(=O)O)C1=O

>  <targetOrTestSystem>
Neprilysin (Homo sapiens)

>  <pIC50>
5.60

$$$$

[1] O=C(N[C@H]1CCc2cccc3c2N(C1=O)[C@H](C(=O)O)C3)[C@@H](S)Cc1ccccc1
[2] C[C@H](NC(=O)[C@@H](CS)Cc1ccccc1)C(=O)N1c2ccccc2C[C@H]1C(=O)O
Recorded pIC50 values differ for 1 and 2 ; which one is higher? Please indicate the selected item by its label.
2

---

Field: IC50. System: UniProtKB P08473. Provenance: assorted publications.
quantity: IC50 (nM)

Sample answers from the record:
>  <givenSmiles>
CS(=O)(=O)N[C@@H](CCCCN)C(=O)N[C@@H](Cc1ccccc1)P(=O)(O)CC1(C(=O)N[C@@H](Cc2c[nH]c3ccccc23)C(=O)O)CCCC1

>  <quantity>
IC50

>  <measuredValue>
90

$$$$
>  <givenSmiles>
O=C1N[C@H](C(=O)O)CCCCc2ccccc2C[C@@H]1CS

>  <quantity>
IC50

>  <measuredValue>
0.9

$$$$
>  <givenSmiles>
CC(C)CN(C[C@H](O)C(=O)O)C(=O)N[C@@H](Cc1ccc(O)cc1)C(=O)O

>  <quantity>
IC50

>  <measuredValue>
6

$$$$
>  <givenSmiles>
O=C1N[C@@H](C(=O)O)Cc2ccccc2CCCCCC[C@@H]1CS

>  <quantity>
IC50

>  <measuredValue>
136

$$$$

[1] C[C@H](c1ccccc1)[C@H](NCP(=O)(O)O)C(=O)N[C@@H](Cc1ccc(-c2ccccc2)cc1)C(=O)O
[2] O=C(O)CN1CCCC[C@H](NC(=O)[C@@H](S)Cc2ccccc2)C1=O
Recorded IC50 values differ for 1 and 2 ; which one is higher? Please indicate the selected item by its label.
2
(2: 82 nM, 1: 47 nM)

---

Field: IC50. System: Neprilysin (Homo sapiens). Provenance: assorted publications.
quantity: IC50 (nM)

Sample answers from the record:
>  <compound>
O=C(O)[C@H](CC#Cc1ccccc1F)NC(=O)[C@H](CC#Cc1ccccc1F)NCP(=O)(O)O

>  <quantity>
IC50

>  <measuredValue>
6300

$$$$
>  <compound>
O=C(NCCc1ccc(Br)cc1)[C@H](CC#Cc1ccc(F)cc1F)NCP(=O)(O)O

>  <quantity>
IC50

>  <measuredValue>
860

$$$$
>  <compound>
O=C(O)CNC(=O)[C@H](Cc1ccc(-c2ccccc2)cc1)C[C@@H](COc1ccccc1)C(=O)O

>  <quantity>
IC50

>  <measuredValue>
3.2

$$$$

[a] C[C@H]1Oc2ccccc2N(CC(=O)O)C(=O)[C@H]1NC(=O)[C@@H](S)Cc1ccccc1
[b] COCC[C@H](NC1(C(=O)N[C@@H](Cc2nnc(-c3ccccc3)o2)C(=O)O)CCCC1)C(=O)O
[c] CC(C)CN(C[C@H](O)C(=O)O)C(=O)N[C@@H](Cc1ccc(O)c(O)c1)C(=O)O
[d] CCCCC(C[C@@H](Cc1ccc(-c2ccccc2)cc1)C(=O)Nc1nc(CC(=O)O)cs1)C(=O)O (stereo in doubt)
[e] O=C(O)[C@H](Cc1ccc(-c2ccccc2)cc1)NC(=O)[C@@H](NCP(=O)(O)O)C1CCCCC1
In this exercise, place the 5 compounds in ascending sequence of their recorded IC50. Put the labels in the requested order and list them out.
b, d, c, e, a

[P] Cc1ccccc1C[C@H](NCP(=O)(O)O)C(=O)N[C@@H](Cc1ccc(-c2ccccc2)cc1)C(=O)O
[Q] O=C(O)C(COc1ccccc1)C[C@@H](Cc1ccc(-c2ccccc2)cc1)C(=O)Nc1nnn[nH]1 (some centres not stated)
[R] O=C1N[C@H](C(=O)O)CCCCCCc2ccccc2C[C@H]1CS
[S] CC[C@H](C)C(NCC(=O)O)C(=O)N[C@@H](Cc1ccc(-c2ccccc2)cc1)C(=O)O (some centres not stated)
In this exercise, place the 4 compounds in ascending sequence of their recorded IC50. Put the labels in the requested order and list them out.
Q, R, P, S

[a] O=C1N[C@H](C(=O)O)CCCCCc2ccccc2C[C@@H]1CS
[b] CC(C)[C@H](NCP(=O)(O)O)C(=O)N[C@@H](Cc1c[nH]c2ccccc12)C(=O)O
[c] CC(C)[C@H](NCP(=O)(O)O)C(=O)N[C@@H](Cc1ccc(C2CCCCC2)cc1)C(=O)O
[d] O=C(NCCc1c[nH]c2ccccc12)[C@H](CC#Cc1ccccc1F)NCP(=O)(O)O
In this exercise, place the 4 compounds in ascending sequence of their recorded IC50. Put the labels in the requested order and list them out.
a, b, c, d
